Target: HvLAP (aminopeptidase from barley seeds)
Assay: Inhibition of barley seed aminopeptidase, L-Leu-p-nitroanilide hydrolysis, spectrophotometric at 405 nm
Type: biochemical, Hordeum vulgare
Conditions: Dixon method; substrate L-Leu-p-nitroanilide; 37 °C, pH 7.5; mixture of SR and SS isomers
outcome-measure: Ki (µM)
Give your result in µM as a bare value.

>>> value_measured("COC(=O)CCP(=O)(O)C(CCc1ccccc1)NC(=O)[C@@H](N)Cc1ccc(-c2ccccc2)cc1 (stereo partly drawn)")
878
>>> value_measured("COC(=O)CCP(=O)(O)C(CCc1ccccc1)NC(=O)[C@@H](N)CCSC (stereo partly drawn)")
38
>>> value_measured("COC(=O)CCP(=O)(O)C(CC(C)C)NC(=O)[C@@H](N)Cc1ccc(-c2ccccc2)cc1 (stereo partly drawn)")
1300
>>> value_measured("CSCC[C@H](N)C(=O)NC(CC(C)C)P(=O)(O)CCC(=O)O (stereo partly drawn)")
1040
>>> value_measured("COC(=O)CCP(=O)(O)C(CC(C)C)NC(=O)[C@@H](N)CCO (stereo partly drawn)")
121

Query: Give the reported value of Ki for this record: CSCC[C@H](N)C(=O)NC(CCc1ccccc1)P(=O)(O)CCC(=O)O (stereo partly drawn)
Response: 228

Query: Give the reported value of Ki for this record: COC(=O)CCP(=O)(O)C(CC(C)C)NC(=O)[C@@H](N)Cc1ccc(C(=O)c2ccccc2)cc1 (stereo partly drawn)
Response: 797

Query: Give the reported value of Ki for this record: COC(=O)CCP(=O)(O)C(CCc1ccccc1)NC(=O)[C@@H](N)Cc1ccc(C(=O)c2ccccc2)cc1 (stereo partly drawn)
Response: 159

Query: Give the reported value of Ki for this record: COC(=O)CCP(=O)(O)C(CC(C)C)NC(=O)[C@@H](N)CCSC (stereo partly drawn)
Response: 649

====

# Ki annotations
Molecular target: SsLAP (porcine leucine aminopeptidase) (Sus scrofa)
Construct: Leucyl aminopeptidase (SsLAP) was isolated from the porcine kidney
Sequence (P28839 whole entry): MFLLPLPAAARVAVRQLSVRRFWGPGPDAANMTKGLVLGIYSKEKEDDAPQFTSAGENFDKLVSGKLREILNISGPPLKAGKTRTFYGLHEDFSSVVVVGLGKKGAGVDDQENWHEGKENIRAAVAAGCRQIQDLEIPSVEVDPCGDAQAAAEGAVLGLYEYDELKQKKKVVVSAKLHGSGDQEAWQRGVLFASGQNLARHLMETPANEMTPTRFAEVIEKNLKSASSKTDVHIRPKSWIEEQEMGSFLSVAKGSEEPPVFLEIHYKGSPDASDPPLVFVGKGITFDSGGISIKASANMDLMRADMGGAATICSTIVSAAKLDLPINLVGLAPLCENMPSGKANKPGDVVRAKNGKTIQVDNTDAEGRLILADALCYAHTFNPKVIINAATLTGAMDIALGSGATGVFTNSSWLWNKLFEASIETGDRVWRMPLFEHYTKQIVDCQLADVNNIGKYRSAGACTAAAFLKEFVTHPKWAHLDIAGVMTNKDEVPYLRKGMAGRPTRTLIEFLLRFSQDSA
Assay: Inhibition of porcine kidney leucine aminopeptidase, L-Leu-p-nitroanilide hydrolysis, spectrophotometric at 405 nm
Details: Dixon method; substrate L-Leu-p-nitroanilide; 37 °C, pH 8.5; mixture of SR and SS isomers
Give your result in µM as a bare value.

>>> value_measured("COC(=O)CCP(=O)(O)C(CC(C)C)NC(=O)[C@@H](N)Cc1ccc(C(=O)c2ccccc2)cc1 (stereo partly drawn) [Compound 9]")
507
>>> value_measured("CSCC[C@H](N)C(=O)NC(CC(C)C)P(=O)(O)CCC(=O)O (stereo partly drawn) [Compound 5]")
3620
>>> value_measured("COC(=O)CCP(=O)(O)C(CCc1ccccc1)NC(=O)[C@@H](N)Cc1ccc(-c2ccccc2)cc1 (stereo partly drawn) [Compound 6]")
175
>>> value_measured("COC(=O)CCP(=O)(O)C(CCc1ccccc1)NC(=O)[C@@H](N)Cc1ccc(C(=O)c2ccccc2)cc1 (stereo partly drawn) [Compound 8]")
95
>>> value_measured("COC(=O)CCP(=O)(O)C(CC(C)C)NC(=O)[C@@H](N)CCSC (stereo partly drawn) [Compound 2]")
1090

Query: Please look at CSCC[C@H](N)C(=O)NC(CCc1ccccc1)P(=O)(O)CCC(=O)O (stereo partly drawn) [Compound 4] and tell me its recorded Ki on SsLAP (porcine leucine aminopeptidase) (Sus scrofa).
Response: 229

Query: Please look at COC(=O)CCP(=O)(O)C(CCc1ccccc1)NC(=O)[C@@H](N)CCSC (stereo partly drawn) [Compound 1] and tell me its recorded Ki on SsLAP (porcine leucine aminopeptidase) (Sus scrofa).
Response: 532

Query: Please look at COC(=O)CCP(=O)(O)C(CC(C)C)NC(=O)[C@@H](N)CCO (stereo partly drawn) [Compound 3] and tell me its recorded Ki on SsLAP (porcine leucine aminopeptidase) (Sus scrofa).
Response: 14

Query: Please look at COC(=O)CCP(=O)(O)C(CC(C)C)NC(=O)[C@@H](N)Cc1ccc(-c2ccccc2)cc1 (stereo partly drawn) [Compound 7] and tell me its recorded Ki on SsLAP (porcine leucine aminopeptidase) (Sus scrofa).
Response: 130

====

# melting point annotations

>>> value_measured("COC(=O)CCP(=O)(O)C(CC(C)C)NC(=O)[C@@H](N)Cc1ccc(-c2ccccc2)cc1 (stereo partly drawn) [Compound 7]")
"150 to 152 °C"
>>> value_measured("COC(=O)CCP(=O)(O)C(CCc1ccccc1)NC(=O)[C@@H](N)Cc1ccc(-c2ccccc2)cc1 (stereo partly drawn) [Compound 6]")
"126 to 128 °C"
>>> value_measured("CSCC[C@H](N)C(=O)NC(CCc1ccccc1)P(=O)(O)CCC(=O)O (stereo partly drawn) [Compound 4]")
"180 to 185 °C"

Query: Give the reported value of melting point for this record: COC(=O)CCP(=O)(O)C(CCc1ccccc1)NC(=O)[C@@H](N)Cc1ccc(C(=O)c2ccccc2)cc1 (stereo partly drawn) [Compound 8]
Response: 134 to 140 °C (dec.)

Query: Give the reported value of melting point for this record: CSCC[C@H](N)C(=O)NC(CC(C)C)P(=O)(O)CCC(=O)O (stereo partly drawn) [Compound 5]
Response: 218 to 222 °C

Query: Give the reported value of melting point for this record: COC(=O)CCP(=O)(O)C(CC(C)C)NC(=O)[C@@H](N)CCO (stereo partly drawn) [Compound 3]
Response: 174 to 176 °C

Query: Give the reported value of melting point for this record: COC(=O)CCP(=O)(O)C(CCc1ccccc1)NC(=O)[C@@H](N)CCSC (stereo partly drawn) [Compound 1]
Response: 161 to 164 °C

Query: Give the reported value of melting point for this record: COC(=O)CCP(=O)(O)C(CC(C)C)NC(=O)[C@@H](N)Cc1ccc(C(=O)c2ccccc2)cc1 (stereo partly drawn) [Compound 9]
Response: 124 to 126 °C

Query: Give the reported value of melting point for this record: COC(=O)CCP(=O)(O)C(CC(C)C)NC(=O)[C@@H](N)CCSC (stereo partly drawn) [Compound 2]
Response: 183 to 184 °C

// data source = paper PMC8151835
